pIC50: −log10 of the molar value.
// pIC50 collected for MALT1 (Homo sapiens)

{"columns": ["Entry Smiles", "Measured"],
 "data": [
  ["Cn1nc(-c2cccc3c2OCC3)c(C(F)(F)F)c1C(=O)Nc1cnc(-n2nccn2)c(Cl)c1", "> 6.30"],
  ["Cn1nc(-c2cccc3occc23)c(C(F)(F)F)c1C(=O)Nc1ccnc(C(F)(F)F)c1", "> 6.30"],
  ["Cn1nc(-c2cccc3c2CCO3)c(C(F)(F)F)c1C(=O)Nc1ccnc(C(F)(F)F)c1", "5.60 to 6.30"],
  ["Cn1nc(COc2ccccc2)c(C(F)(F)F)c1C(=O)Nc1ccnc(C(F)(F)F)c1", "5.00 to 5.60"],
  ["Cn1nc(-c2ccccc2)c(C(F)(F)F)c1C(=O)Nc1ccc(C(=O)N2CC(O)C2)c(Cl)c1", "5.00 to 5.60"],
  ["Cn1nc(-c2ccccc2)c(C2CC2)c1C(=O)Nc1ccnc(C(F)(F)F)c1", "5.60 to 6.30"],
  ["Cn1nc(C2CCNCC2)c(C(F)(F)F)c1C(=O)Nc1ccnc(C(F)(F)F)c1", "< 5.00"]
]}

We next turn to a different compound, shown below.
State the measured pIC50 (MALT1 (Homo sapiens)) of Cn1nc(-c2cccc3ncn(C)c23)c(C(F)(F)F)c1NC(=O)c1ccnc(C(F)(F)F)c1
5.00 to 5.60

---

# Target Entity: MALT1 (Homo sapiens, UniProt Q9UDY8)
# Sequence (Q9UDY8 1-824): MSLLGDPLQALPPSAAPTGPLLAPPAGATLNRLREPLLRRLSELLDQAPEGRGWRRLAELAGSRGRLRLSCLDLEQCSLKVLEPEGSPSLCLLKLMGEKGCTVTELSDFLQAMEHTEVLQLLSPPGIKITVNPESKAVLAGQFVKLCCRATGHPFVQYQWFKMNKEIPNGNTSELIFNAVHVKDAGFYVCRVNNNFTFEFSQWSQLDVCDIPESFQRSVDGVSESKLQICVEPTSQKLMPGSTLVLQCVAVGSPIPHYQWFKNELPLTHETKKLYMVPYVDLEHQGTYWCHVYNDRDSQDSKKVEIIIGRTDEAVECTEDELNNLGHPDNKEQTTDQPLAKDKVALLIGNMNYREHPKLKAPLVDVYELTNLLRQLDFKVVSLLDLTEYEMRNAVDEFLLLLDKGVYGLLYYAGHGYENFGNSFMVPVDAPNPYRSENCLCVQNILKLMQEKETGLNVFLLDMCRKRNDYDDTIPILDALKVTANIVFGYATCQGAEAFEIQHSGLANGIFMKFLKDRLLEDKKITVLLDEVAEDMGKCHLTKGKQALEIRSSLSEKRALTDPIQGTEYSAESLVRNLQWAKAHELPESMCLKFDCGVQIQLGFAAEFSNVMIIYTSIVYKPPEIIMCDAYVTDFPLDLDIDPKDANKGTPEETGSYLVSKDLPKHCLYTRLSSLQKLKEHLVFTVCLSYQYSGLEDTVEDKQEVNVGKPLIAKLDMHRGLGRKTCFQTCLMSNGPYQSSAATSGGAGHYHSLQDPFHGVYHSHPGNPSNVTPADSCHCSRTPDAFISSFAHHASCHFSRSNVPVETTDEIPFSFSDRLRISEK
Measured IC50 of individual entries

Consider the following illustrative entries.
{"columns": ["Compound", "Measured"],
 "data": [
  ["Cn1nc(-c2cnc(N)c3ccccc23)c(C(F)(F)F)c1C(=O)Nc1ccnc(C(F)(F)F)c1 [Compound I-77]", "500 to 2500 nM"],
  ["Cn1nc(-c2cccc3c2OCO3)c(C(F)(F)F)c1C(=O)Nc1cnc(-n2nccn2)c(Cl)c1 [Compound I-144]", "< 500 nM"],
  ["Cn1nc(-c2cc(O)ccc2Cl)c(C(F)(F)F)c1C(=O)Nc1ccnc(C(F)(F)F)c1 [Compound I-75]", "500 to 2500 nM"],
  ["O=C(Nc1cnc(-n2nccn2)c(Cl)c1)c1c(C(F)(F)F)c(-c2ccccc2)nn1CCO [Compound I-211]", "2500 to 10000 nM"],
  ["CN1Cc2c(cccc2-c2nn(C)c(C(=O)Nc3ccnc(C(F)(F)F)c3)c2C(F)(F)F)C1=O [Compound I-98]", "> 10000 nM"]
]}

Provide the reported IC50 (system: MALT1 (Homo sapiens, UniProt Q9UDY8)) for Cn1cc2cccc(-c3nn(C)c(C(=O)Nc4ccnc(C(F)(F)F)c4)c3C(F)(F)F)c2n1 [Compound I-5]
2500 to 10000 nM

Report IC50 on MALT1 (Homo sapiens, UniProt Q9UDY8) for this entry: Cn1nc(-c2ccc(C#N)cc2Cl)c(C(F)(F)F)c1C(=O)Nc1cnc(-n2nccn2)c(C#N)c1 [Compound I-35]
< 500 nM

Write down the reported IC50 (system: MALT1 (Homo sapiens, UniProt Q9UDY8)) of COc1cccc(-c2nn(C)c(C(=O)Nc3ccnc(C(F)(F)F)c3)c2C(F)(F)F)c1Cl [Compound I-68]
500 to 2500 nM

Report value: IC50, system: MALT1 (Homo sapiens, UniProt Q9UDY8), compound: Cn1nc(-c2cccc3oncc23)c(C(F)(F)F)c1C(=O)Nc1ccnc(C(F)(F)F)c1 [Compound I-246]
2500 to 10000 nM

Param request: IC50 | system MALT1 (Homo sapiens, UniProt Q9UDY8) | item Cn1nc(-c2ccc(F)c(N)n2)c(C(F)(F)F)c1C(=O)Nc1ccnc(C(F)(F)F)c1 [Compound I-196]
500 to 2500 nM

Name the value of IC50 reported for O=C1c2c(C(F)(F)F)c(-c3ccccc3)nn2CCN1c1ccnc(C(F)(F)F)c1 [Compound I-184] when tested on MALT1 (Homo sapiens, UniProt Q9UDY8).
> 10000 nM

Identify measured IC50 obtained with MALT1 (Homo sapiens, UniProt Q9UDY8) for O=C(Nc1cnc(-n2nccn2)c(Cl)c1)c1cc(-c2ccccc2)nn1C(F)F [Compound I-181] .
2500 to 10000 nM

---

# Target Entity: MALT1 (Homo sapiens)
# Sequence (Q9UDY8 1-824): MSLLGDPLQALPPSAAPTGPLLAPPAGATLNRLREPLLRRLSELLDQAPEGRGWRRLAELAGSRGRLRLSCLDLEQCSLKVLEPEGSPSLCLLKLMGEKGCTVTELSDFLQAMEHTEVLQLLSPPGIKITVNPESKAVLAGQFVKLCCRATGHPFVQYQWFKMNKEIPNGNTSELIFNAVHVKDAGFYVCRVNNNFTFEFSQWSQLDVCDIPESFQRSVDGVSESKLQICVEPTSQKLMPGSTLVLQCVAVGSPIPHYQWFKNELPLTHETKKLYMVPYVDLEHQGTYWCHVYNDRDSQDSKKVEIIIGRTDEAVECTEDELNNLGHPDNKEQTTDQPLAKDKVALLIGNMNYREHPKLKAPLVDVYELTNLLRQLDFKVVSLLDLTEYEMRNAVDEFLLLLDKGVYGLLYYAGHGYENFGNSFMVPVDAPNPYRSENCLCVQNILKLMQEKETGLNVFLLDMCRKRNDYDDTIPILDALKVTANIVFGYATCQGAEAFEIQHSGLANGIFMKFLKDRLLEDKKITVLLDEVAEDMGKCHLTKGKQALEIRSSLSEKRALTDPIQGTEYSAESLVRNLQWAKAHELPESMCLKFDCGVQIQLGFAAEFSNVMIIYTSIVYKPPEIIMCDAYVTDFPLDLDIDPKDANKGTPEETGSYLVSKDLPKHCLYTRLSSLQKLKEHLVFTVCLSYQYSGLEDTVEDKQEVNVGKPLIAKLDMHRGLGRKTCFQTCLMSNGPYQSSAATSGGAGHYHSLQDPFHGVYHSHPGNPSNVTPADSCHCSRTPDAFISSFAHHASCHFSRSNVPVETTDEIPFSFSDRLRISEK
Observation Type: IC50

These solved cases illustrate the format of a correct answer.
{"columns": ["Entry Smiles", "Measured"],
 "data": [
  ["Cn1nc2c(c1C(=O)Nc1ccnc(C(F)(F)F)c1)CCCc1ccccc1-2", "2500 to 10000 nM"],
  ["Cn1nc(-c2ccccc2CC(F)(F)F)cc1C(=O)Nc1ccnc(C(F)(F)F)c1", "2500 to 10000 nM"],
  ["Cn1cc2c(-c3nn(C)c(C(=O)Nc4ccnc(C(F)(F)F)c4)c3C(F)(F)F)cccc2n1", "2500 to 10000 nM"],
  ["Cn1cc(-c2nn(C)c(C(=O)Nc3ccnc(C(F)(F)F)c3)c2C(F)(F)F)c(C2CC2)n1", "2500 to 10000 nM"],
  ["Cn1nc(-c2cccc3cnoc23)c(C(F)(F)F)c1C(=O)Nc1ccnc(C(F)(F)F)c1", "2500 to 10000 nM"],
  ["Cn1nc(-c2cccc3c2OCO3)c(C(F)(F)F)c1C(=O)Nc1ccnc(C(F)(F)F)c1", "< 500 nM"],
  ["O=C(Nc1cnc(-n2nccn2)c(C(F)(F)F)c1)c1c(C(F)(F)F)c(-c2ccccc2)nn1C1CC1", "500 to 2500 nM"],
  ["Cn1nc(-c2ccccc2)c(C(F)(F)F)c1C(=O)Nc1ccnc(C2CC2)c1", "2500 to 10000 nM"]
]}

Quick one: give measured IC50 for Cn1nc(-c2cccc3ncccc23)c(C(F)(F)F)c1C(=O)Nc1cnc(-n2nccn2)c(Cl)c1
< 500 nM

Indicate its recorded IC50; the compound in question is Cc1ccc(-c2nn(C)c(C(=O)Nc3ccnc(C(F)(F)F)c3)c2C(F)(F)F)n2ccnc12
2500 to 10000 nM

Could you please provide reported IC50 for Cn1nc(-c2cccc3nncn23)c(C(F)(F)F)c1C(=O)Nc1ccnc(C(F)(F)F)c1 ? Thanks!
2500 to 10000 nM

Using known records, supply IC50 for Cn1nc(C(=O)Nc2cnc(-n3nccn3)c(Cl)c2)c(C(F)(F)F)c1-c1cccc2c1OCO2
< 500 nM

Output IC50 of Cn1nc(-c2cccc3c2CCNC3=O)c(C(F)(F)F)c1C(=O)Nc1ccnc(C(F)(F)F)c1
2500 to 10000 nM
